- target.desc: cleaved gp140 oligomers (HIV 89.6) (Human immunodeficiency virus type 1 group M subtype B)
- Sequence (Q73372 32-681): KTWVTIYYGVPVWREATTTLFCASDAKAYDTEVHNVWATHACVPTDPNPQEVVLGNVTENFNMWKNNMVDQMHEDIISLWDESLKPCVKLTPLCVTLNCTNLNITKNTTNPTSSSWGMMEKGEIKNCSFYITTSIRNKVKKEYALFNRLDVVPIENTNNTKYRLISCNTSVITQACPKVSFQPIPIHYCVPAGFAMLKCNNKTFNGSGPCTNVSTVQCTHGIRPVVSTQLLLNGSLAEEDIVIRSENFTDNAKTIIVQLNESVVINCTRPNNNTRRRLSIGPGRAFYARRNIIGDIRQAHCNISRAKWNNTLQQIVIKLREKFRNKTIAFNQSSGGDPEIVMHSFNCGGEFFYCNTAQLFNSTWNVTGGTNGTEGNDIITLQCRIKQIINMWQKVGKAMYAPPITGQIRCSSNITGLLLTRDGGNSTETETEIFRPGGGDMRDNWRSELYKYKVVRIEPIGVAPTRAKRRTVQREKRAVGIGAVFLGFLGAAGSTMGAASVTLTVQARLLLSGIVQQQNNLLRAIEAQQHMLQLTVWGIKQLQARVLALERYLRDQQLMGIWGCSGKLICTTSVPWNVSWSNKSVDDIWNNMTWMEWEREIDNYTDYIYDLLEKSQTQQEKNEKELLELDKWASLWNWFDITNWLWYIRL
- assay.text: biochemical
- Type: binding
No end group written: not given here.
attribute.measured: Kd (nM)
// return numeric value only (unit: nM, not printed)

Simply: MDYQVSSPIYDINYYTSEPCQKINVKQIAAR [CCR5-D1] , cleaved gp140 oligomers (HIV 89.6) (Human immunodeficiency virus type 1 group M subtype B), Kd = 1000

Origin of measurements: patent US7033593B2
